system: Ire1KR32 (cytosolic kinase/RNase portion of Ire1) (Saccharomyces cerevisiae, UniProt P32361)
Construct: cytoplasmic kinase + RNase domains with N-terminal 32-aa extension from the linker to the transmembrane segment; GST fusion (pGEX-6P-2) in E. coli, GST cleaved by PreScission; autophosphorylated (~20 phosphates); homo-oligomerizes
Sequence (P32361 641-1115): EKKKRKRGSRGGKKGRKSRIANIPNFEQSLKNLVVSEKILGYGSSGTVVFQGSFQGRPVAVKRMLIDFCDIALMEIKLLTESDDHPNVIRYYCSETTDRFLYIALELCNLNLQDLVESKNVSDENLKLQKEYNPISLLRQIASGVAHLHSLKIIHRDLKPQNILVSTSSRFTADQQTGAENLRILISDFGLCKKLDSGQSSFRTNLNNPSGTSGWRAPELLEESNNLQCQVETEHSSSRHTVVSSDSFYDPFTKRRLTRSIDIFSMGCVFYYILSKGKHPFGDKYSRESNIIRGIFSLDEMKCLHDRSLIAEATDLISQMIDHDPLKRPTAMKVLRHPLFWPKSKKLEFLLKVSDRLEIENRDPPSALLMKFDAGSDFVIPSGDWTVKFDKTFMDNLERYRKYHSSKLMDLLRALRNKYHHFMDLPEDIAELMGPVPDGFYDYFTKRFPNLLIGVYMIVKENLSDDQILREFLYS
assayNotes: inhibition of ADP-stimulated RNase cleavage of […]-RNA hairpin
Format: biochemical
cond: competition with 0.2 mM ADP, 3 µM Ire1KR32, 2 mM Mg2+, pH 7.4, 30 °C; kinase ATP pocket; paper prints mmol for mM
Entries and their measured Ki follow.
propertyLabel: Ki (mM)

compound | readingUnit | observedValue
Nc1ncnc2c1ncn2[C@@H]1O[C@H](COP(=O)(O)OP(=O)(O)OP(=O)(O)O)[C@@H](O)[C@H]1O | mM | 0.1
Nc1ncnc2c1ncn2[C@@H]1O[C@H](COP(=O)(O)OP(=O)(O)S)[C@@H](O)[C@H]1O (some centres unmarked) | mM | 0.2
